Hey, just so you know, these numbers are from patent US20120172293A1.

Biological target: human Y2 receptor (human) (UniProt P49146)
Sequence (P49146 whole entry): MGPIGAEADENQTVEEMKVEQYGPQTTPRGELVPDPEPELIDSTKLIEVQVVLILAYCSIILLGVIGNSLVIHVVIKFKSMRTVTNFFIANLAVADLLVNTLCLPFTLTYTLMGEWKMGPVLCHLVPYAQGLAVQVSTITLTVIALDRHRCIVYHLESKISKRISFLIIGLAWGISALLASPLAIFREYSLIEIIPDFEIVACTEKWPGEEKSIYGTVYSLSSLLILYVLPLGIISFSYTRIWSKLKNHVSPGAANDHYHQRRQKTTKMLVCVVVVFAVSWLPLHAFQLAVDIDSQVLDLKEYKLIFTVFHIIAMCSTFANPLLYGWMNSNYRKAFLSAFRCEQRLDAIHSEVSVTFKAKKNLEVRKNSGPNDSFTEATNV
Assay: cell-based or functional assay
Starred links: 1 amine or outer side, 2 acyl side, 3 side chain; linkers in the order of their positions; H or OH if unused. Non-standard residues stand in square brackets, D forms with d. tBuAla = CC(C)(C)C[C@H](N)C(=O)O; 4Pal = N[C@@H](Cc1ccncc1)C(=O)O; Cha = N[C@@H](CC1CCCCC1)C(=O)O; Suc = O=C(CCC(=O)[*:2])[*:1]; dIva = CC[C@@](C)(N)C(=O)O; Nle = CCCC[C@H](N)C(=O)O; dNMeA = CN[C@H](C)C(=O)O; Aib = CC(C)(N)C(=O)O; Ahx = NCCCCCC(=O)O
Measured GBA EC50 Ratio (vs PYY(3-36)), [35S]GTPγS accompanies every entry in the list below.
When you answer, write just the number.

Worked cases, GBA EC50 Ratio (vs PYY(3-36)), [35S]GTPγS given:
Ac-[dNMeA]S[dP]RH[Cha][Cha]NL[Aib]TRQR[Cha]-NH2 (SMILES CC(=O)N(C)[C@H](C)C(=O)N[C@@H](CO)C(=O)N1CCC[C@@H]1C(=O)N[C@@H](CCCNC(=N)N)C(=O)N[C@@H](Cc1c[nH]cn1)C(=O)N[C@@H](CC1CCCCC1)C(=O)N[C@@H](CC1CCCCC1)C(=O)N[C@@H](CC(N)=O)C(=O)N[C@@H](CC(C)C)C(=O)NC(C)(C)C(=O)N[C@H](C(=O)N[C@@H](CCCNC(=N)N)C(=O)N[C@@H](CCC(N)=O)C(=O)N[C@@H](CCCNC(=N)N)C(=O)N[C@@H](CC1CCCCC1)C(N)=O)[C@@H](C)O) [Ac-[D-MeAla22, D-Pro24, Cha27,28,36, Aib31]-PYY(22-36)] | 6.1
Suc-[Ahx]S[dP]RH[Cha][tBuAla]NK[Aib]TRQR[Cha]-NH2 (SMILES C[C@@H](O)[C@H](NC(=O)C(C)(C)NC(=O)[C@H](CCCCN)NC(=O)[C@H](CC(N)=O)NC(=O)[C@H](CC(C)(C)C)NC(=O)[C@H](CC1CCCCC1)NC(=O)[C@H](Cc1c[nH]cn1)NC(=O)[C@H](CCCNC(=N)N)NC(=O)[C@H]1CCCN1C(=O)[C@H](CO)NC(=O)CCCCCNC(=O)CCC(=O)O)C(=O)N[C@@H](CCCNC(=N)N)C(=O)N[C@@H](CCC(N)=O)C(=O)N[C@@H](CCCNC(=N)N)C(=O)N[C@@H](CC1CCCCC1)C(N)=O) [3-Carboxypropionyl-[Acp22, D-Pro24, Cha27,36, Leu(Me)28, Lys30, Aib31]-PYY(22-36)] | 1.2

input: Bench note: what GBA EC50 Ratio (vs PYY(3-36)), [35S]GTPγS did Ac-S[dP]RH[Cha][Cha][dIva]L[Aib]TRQR[Cha]-NH2 (SMILES CC[C@@](C)(NC(=O)[C@H](CC1CCCCC1)NC(=O)[C@H](CC1CCCCC1)NC(=O)[C@H](Cc1c[nH]cn1)NC(=O)[C@H](CCCNC(=N)N)NC(=O)[C@H]1CCCN1C(=O)[C@H](CO)NC(C)=O)C(=O)N[C@@H](CC(C)C)C(=O)NC(C)(C)C(=O)N[C@H](C(=O)N[C@@H](CCCNC(=N)N)C(=O)N[C@@H](CCC(N)=O)C(=O)N[C@@H](CCCNC(=N)N)C(=O)N[C@@H](CC1CCCCC1)C(N)=O)[C@@H](C)O) [Ac-[D-Pro24, Cha27,28,36, D-Iva29, Aib31]-PYY(23-36)] show?
output: 37

input: Cool, now Ac-S[dP][Nle][4Pal][Cha][Cha]NL[Aib]TRQR[Cha]-NH2 (SMILES CCCC[C@H](NC(=O)[C@H]1CCCN1C(=O)[C@H](CO)NC(C)=O)C(=O)N[C@@H](Cc1ccncc1)C(=O)N[C@@H](CC1CCCCC1)C(=O)N[C@@H](CC1CCCCC1)C(=O)N[C@@H](CC(N)=O)C(=O)N[C@@H](CC(C)C)C(=O)NC(C)(C)C(=O)N[C@H](C(=O)N[C@@H](CCCNC(=N)N)C(=O)N[C@@H](CCC(N)=O)C(=O)N[C@@H](CCCNC(=N)N)C(=O)N[C@@H](CC1CCCCC1)C(N)=O)[C@@H](C)O) [Ac-[D-Pro24, Nle25, Pya(4)26, Cha27,28,36, Aib31]-PYY(23-36)]
output: 2.6
